- Tested on: 633275-114-R-J1-PDC complex spheroids, viability;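 also: spheroids exposed to the agents for seven days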
- protocol.text: Anticancer human tumor 633275-114-R-J1-PDC patient-derived endometrial adenocarcinoma cell line growth inhibition [GQUAD]; active = viability on the fitted dose curve at most 10% of control; inactive = the rest
- assay.conditions: second compound 10 µM; first compound 3.16 µM
- Excerpt: DNA G-quadruplex Stabilizer Agents in Combinations in Complex Spheroids A high-throughput screen of multi-cell type tumor spheroids was designed to identify active combinations of DNA G-quadruplex stabilizer agents and targeted small molecules. […] Compounds. […] If the clinical Cmax for an agent had not been determined, the highest concentration tested was 10 microM. […]
Labels: active, inactive

molecule: COc1cc(C2c3cc4c(cc3C(OC3OC5COC(C)OC5C(O)C3O)C3COC(=O)C23)OCO4)cc(OC)c1O (stereo unspecified) + CN(C)c1ccc(Nc2c3ccc(NC(=O)CCN4CCCC4)cc3nc3cc(NC(=O)CCN4CCCC4)ccc23)cc1
label.value: inactive
--
molecule: O=c1[nH]cc(F)c(=O)[nH]1 + Cc1[nH]c2ccc(F)cc2c1-c1nc2c3cccnc3c3ncccc3c2[nH]1
label.value: inactive
--
molecule: COc1cccc2c1C(=O)c1c(O)c3c(c(O)c1C2=O)CC(O)(C(=O)CO)CC3OC1CC(N)C(O)C(C)O1 (stereo unspecified) + Cc1[nH]c2ccc(F)cc2c1-c1nc2c3cccnc3c3ncccc3c2[nH]1
label.value: active
--
molecule: CC1COCCN1c1cc(C2(S(C)(=N)=O)CC2)nc(-c2ccnc3[nH]ccc23)n1 (stereo unspecified) + Cc1cnc(CNC(=O)c2c(=O)c3ccc(N4CCCN(C)CC4)nc3n3c2sc2ccccc23)cn1
label.value: inactive
--
molecule: CC1COCCN1c1cc(C2(O)CC3CCC(C2)O3)c2cnn(-c3ccn[nH]3)c2n1 (stereo unspecified) + CN(C)c1ccc(Nc2c3ccc(NC(=O)CCN4CCCC4)cc3nc3cc(NC(=O)CCN4CCCC4)ccc23)cc1
label.value: active
--
molecule: COc1ncnc(C2CC2)c1-c1ncc2cnn(Cc3ccc(-c4nc(C(F)(F)F)cn4C(C)C)cc3)c2n1 + Cc1[nH]c2ccc(F)cc2c1-c1nc2c3cccnc3c3ncccc3c2[nH]1
label.value: inactive
--
molecule: COc1cc(C2c3cc4c(cc3C(OC3OC5COC(C)OC5C(O)C3O)C3COC(=O)C23)OCO4)cc(OC)c1O (stereo unspecified) + Cc1[nH]c2ccc(F)cc2c1-c1nc2c3cccnc3c3ncccc3c2[nH]1
label.value: inactive
--
molecule: Cc1cccc(N(C)C(=O)C2C(O)CCN2c2nc(C)cc(C(F)(F)F)c2C#N)c1 (stereo unspecified) + Cc1cnc(CNC(=O)c2c(=O)c3ccc(N4CCCN(C)CC4)nc3n3c2sc2ccccc23)cn1
label.value: inactive
--
molecule: Cc1cccc(N(C)C(=O)C2C(O)CCN2c2nc(C)cc(C(F)(F)F)c2C#N)c1 (stereo unspecified) + CN(C)c1ccc(Nc2c3ccc(NC(=O)CCN4CCCC4)cc3nc3cc(NC(=O)CCN4CCCC4)ccc23)cc1
label.value: inactive
--
molecule: CC(C)(O)C1CCC(Nc2ccc3ncc(-c4cccc(C(F)(F)F)c4)n3n2)CC1 (stereo unspecified) + CN(C)c1ccc(Nc2c3ccc(NC(=O)CCN4CCCC4)cc3nc3cc(NC(=O)CCN4CCCC4)ccc23)cc1
label.value: inactive
--
molecule: C=CCn1c(=O)c2cnc(Nc3ccc(N4CCN(C)CC4)cc3)nc2n1-c1cccc(C(C)(C)O)n1 + Cc1[nH]c2ccc(F)cc2c1-c1nc2c3cccnc3c3ncccc3c2[nH]1
label.value: inactive
--
molecule: O=C(c1cc(Cc2n[nH]c(=O)c3ccccc23)ccc1F)N1CCN(C(=O)C2CC2)CC1 + Cc1cnc(CNC(=O)c2c(=O)c3ccc(N4CCCN(C)CC4)nc3n3c2sc2ccccc23)cn1
label.value: inactive
--
molecule: CCCS(=O)(=O)Nc1ccc(F)c(C(=O)c2c[nH]c3ncc(-c4ccc(Cl)cc4)cc23)c1F + Cc1cnc(CNC(=O)c2c(=O)c3ccc(N4CCCN(C)CC4)nc3n3c2sc2ccccc23)cn1
label.value: inactive
--
molecule: O=c1[nH]cc(F)c(=O)[nH]1 + CN(C)c1ccc(Nc2c3ccc(NC(=O)CCN4CCCC4)cc3nc3cc(NC(=O)CCN4CCCC4)ccc23)cc1
label.value: inactive
--
molecule: CC1COCCN1c1cc(-c2ccnn2C)c2ccnc(-c3ccn[nH]3)c2n1 (stereo unspecified) + Cc1[nH]c2ccc(F)cc2c1-c1nc2c3cccnc3c3ncccc3c2[nH]1
label.value: inactive
--
molecule: CC(C)n1c(=O)n(C)c2cnc3cc(F)c(-c4ccc(OCCCN5CCCCC5)nc4)cc3c21 + Cc1[nH]c2ccc(F)cc2c1-c1nc2c3cccnc3c3ncccc3c2[nH]1
label.value: inactive
--
molecule: C=CC(=O)N1CCN(c2nc(=O)n(-c3c(C)ccnc3C(C)C)c3nc(-c4c(O)cccc4F)c(F)cc23)C(C)C1 (stereo unspecified) + CN(C)c1ccc(Nc2c3ccc(NC(=O)CCN4CCCC4)cc3nc3cc(NC(=O)CCN4CCCC4)ccc23)cc1
label.value: inactive
--
molecule: Cc1cccc(N(C)C(=O)C2C(O)CCN2c2nc(C)cc(C(F)(F)F)c2C#N)c1 (stereo unspecified) + Cc1[nH]c2ccc(F)cc2c1-c1nc2c3cccnc3c3ncccc3c2[nH]1
label.value: inactive
--
molecule: CC1COCCN1c1cc(C2(S(C)(=N)=O)CC2)nc(-c2ccnc3[nH]ccc23)n1 (stereo unspecified) + CN(C)c1ccc(Nc2c3ccc(NC(=O)CCN4CCCC4)cc3nc3cc(NC(=O)CCN4CCCC4)ccc23)cc1
label.value: inactive
--
molecule: C=CCn1c(=O)c2cnc(Nc3ccc(N4CCN(C)CC4)cc3)nc2n1-c1cccc(C(C)(C)O)n1 + CN(C)c1ccc(Nc2c3ccc(NC(=O)CCN4CCCC4)cc3nc3cc(NC(=O)CCN4CCCC4)ccc23)cc1
label.value: inactive
--
molecule: COc1ncnc(C2CC2)c1-c1ncc2cnn(Cc3ccc(-c4nc(C(F)(F)F)cn4C(C)C)cc3)c2n1 + CN(C)c1ccc(Nc2c3ccc(NC(=O)CCN4CCCC4)cc3nc3cc(NC(=O)CCN4CCCC4)ccc23)cc1
label.value: inactive
